Hey, just so you know, these numbers are from patent US20090286806A1.

Recorded IC50 values for a group of compounds are listed next.
# Tested on: human α1G T-type channels (Homo sapiens, UniProt O43497)
# Construct: expressed in transfected cells; host or cells: HEK cell lines
# Sequence (O43497 whole entry): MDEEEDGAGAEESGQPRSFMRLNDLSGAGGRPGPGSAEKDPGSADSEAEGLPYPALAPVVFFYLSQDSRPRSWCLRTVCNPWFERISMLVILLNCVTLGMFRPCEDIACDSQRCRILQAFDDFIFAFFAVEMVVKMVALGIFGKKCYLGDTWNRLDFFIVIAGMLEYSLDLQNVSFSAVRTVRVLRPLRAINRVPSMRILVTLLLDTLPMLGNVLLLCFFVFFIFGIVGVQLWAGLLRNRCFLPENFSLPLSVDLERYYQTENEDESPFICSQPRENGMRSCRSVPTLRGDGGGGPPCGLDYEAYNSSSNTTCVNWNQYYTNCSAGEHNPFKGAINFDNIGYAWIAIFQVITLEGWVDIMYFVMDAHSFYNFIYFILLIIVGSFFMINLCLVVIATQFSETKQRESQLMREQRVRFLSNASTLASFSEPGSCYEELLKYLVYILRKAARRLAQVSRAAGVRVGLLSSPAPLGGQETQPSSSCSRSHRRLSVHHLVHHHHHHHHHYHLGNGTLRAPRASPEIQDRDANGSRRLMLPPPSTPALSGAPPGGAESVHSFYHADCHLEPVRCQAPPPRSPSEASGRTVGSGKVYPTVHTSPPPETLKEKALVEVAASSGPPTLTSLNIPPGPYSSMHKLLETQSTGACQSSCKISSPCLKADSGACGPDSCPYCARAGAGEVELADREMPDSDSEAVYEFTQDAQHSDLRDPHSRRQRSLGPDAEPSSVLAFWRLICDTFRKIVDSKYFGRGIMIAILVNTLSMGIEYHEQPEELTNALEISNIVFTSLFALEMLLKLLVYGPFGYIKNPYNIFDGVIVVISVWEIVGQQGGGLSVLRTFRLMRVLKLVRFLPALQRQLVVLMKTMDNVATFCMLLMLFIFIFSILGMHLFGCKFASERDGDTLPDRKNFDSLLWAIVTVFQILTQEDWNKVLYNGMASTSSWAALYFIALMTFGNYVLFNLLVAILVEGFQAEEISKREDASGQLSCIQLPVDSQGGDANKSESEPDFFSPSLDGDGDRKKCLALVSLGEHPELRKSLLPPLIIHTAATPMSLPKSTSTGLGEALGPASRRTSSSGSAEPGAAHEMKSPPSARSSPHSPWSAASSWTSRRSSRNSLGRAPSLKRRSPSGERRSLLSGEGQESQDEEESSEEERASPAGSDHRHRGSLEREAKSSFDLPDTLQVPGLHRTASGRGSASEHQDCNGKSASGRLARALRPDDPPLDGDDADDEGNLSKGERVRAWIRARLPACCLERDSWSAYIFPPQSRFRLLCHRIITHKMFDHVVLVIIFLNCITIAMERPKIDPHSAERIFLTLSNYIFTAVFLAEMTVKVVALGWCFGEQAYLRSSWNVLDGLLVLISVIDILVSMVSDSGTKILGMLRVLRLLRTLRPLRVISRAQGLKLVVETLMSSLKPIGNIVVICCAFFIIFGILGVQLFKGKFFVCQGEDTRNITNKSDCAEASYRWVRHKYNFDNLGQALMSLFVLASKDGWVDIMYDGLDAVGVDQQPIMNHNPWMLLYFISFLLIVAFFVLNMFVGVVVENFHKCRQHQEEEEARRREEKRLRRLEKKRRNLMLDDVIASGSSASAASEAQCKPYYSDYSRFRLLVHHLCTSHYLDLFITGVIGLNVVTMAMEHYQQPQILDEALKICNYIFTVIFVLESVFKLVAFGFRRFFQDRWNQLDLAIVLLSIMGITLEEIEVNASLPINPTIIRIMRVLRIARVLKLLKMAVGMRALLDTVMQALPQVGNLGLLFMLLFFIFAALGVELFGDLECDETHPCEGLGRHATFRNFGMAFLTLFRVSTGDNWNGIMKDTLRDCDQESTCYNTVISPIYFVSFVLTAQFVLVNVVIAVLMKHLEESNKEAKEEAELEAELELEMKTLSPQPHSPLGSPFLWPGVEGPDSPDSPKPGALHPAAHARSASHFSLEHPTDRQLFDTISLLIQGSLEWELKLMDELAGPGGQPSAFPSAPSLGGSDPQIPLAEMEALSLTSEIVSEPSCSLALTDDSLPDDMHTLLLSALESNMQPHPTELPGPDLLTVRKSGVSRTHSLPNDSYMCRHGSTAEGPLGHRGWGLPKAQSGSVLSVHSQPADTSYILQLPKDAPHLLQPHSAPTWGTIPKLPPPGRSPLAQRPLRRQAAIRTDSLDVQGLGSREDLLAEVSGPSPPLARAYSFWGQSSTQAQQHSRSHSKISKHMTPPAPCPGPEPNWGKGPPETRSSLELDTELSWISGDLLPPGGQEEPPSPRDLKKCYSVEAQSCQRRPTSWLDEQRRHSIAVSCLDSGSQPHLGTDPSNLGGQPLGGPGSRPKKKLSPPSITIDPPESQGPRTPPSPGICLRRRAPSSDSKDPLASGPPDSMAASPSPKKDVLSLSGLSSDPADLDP
# Assay remarks: T-type calcium channel block, whole-cell patch clamp in HEK cell lines
# Type: cell-based
# Stated conditions: non-inactivating protocol, pre-pulse −100 mV (resting block), HEK cells, read-out: IC50 @ −100 mV
Could you give me the number in µM? Just the number is fine.

Use the examples below as a reference point.
[[record]]
compound = "Cc1ccc(C(c2ccccc2)N2CCN(Cc3cc(-c4ccccc4F)no3)CC2)c(C)c1 (stereo not shown)"
quantity_measured = "IC50"
unit_text = "µM"
measured_result = 3.69

[[record]]
compound = "c1ccc(-c2cc(CN3CCN(C(c4ccccc4)c4ccccc4)CC3)on2)cc1"
quantity_measured = "IC50"
unit_text = "µM"
measured_result = 1.6

[[record]]
compound = "Cc1ccc(C(c2ccccc2)N2CCN(Cc3cc(-c4ccccc4)no3)CC2)c(C)c1 (stereo not shown)"
quantity_measured = "IC50"
unit_text = "µM"
measured_result = 9.21


For record Cc1ccc(C(c2ccccc2)N2CCN(C(=O)c3cc(-c4ccccc4F)no3)CC2)c(C)c1 (stereo not shown) the listed IC50 is 14.8
